# Tested on: 616215-338-R-J1-PDC complex spheroid viability
# Test Description: Anticancer human tumor 616215-338-R-J1-PDC patient-derived colon adenocarcinoma cell line growth inhibition [RAS]; active means viability on the fitted dose curve at most 10% of control; inactive means the rest
# Test Context: second compound 0.1 µM; first compound 1 µM
# Description: RAS pathway inhibitors in Combinations in Complex Spheroids A high-throughput screen of multi-cell type tumor spheroids was designed to identify active combinations of RAS pathway inhibitors and targeted small molecules. Complex spheroids include a stromal component modeled by human endothelial cells (HUVEC) and fibroblasts modeled by human mesenchymal stem cells (MSCs). […] Compounds. […] If the clinical Cmax for an agent had not been determined, the highest concentration tested was 10 microM. […]
Entry note: the call must match one of active, inactive

Compound	Label Value
CC(Nc1ccc2c(c1)OCCn1cc(N3C(=O)OCC3C(F)F)nc1-2)C(N)=O (stereo not given) + C=CC(=O)N1CCN(c2nc(OCC3CCCN3C)nc3c(F)c(-c4nc(N)cc(C)c4C(F)(F)F)c(Cl)cc23)C(C)C1	inactive
Cc1nc(N2CCC3(CC2)COC(C)C3N)c(CO)nc1Sc1ccnc(N)c1Cl (stereo not given) + C#Cc1c(F)ccc2cc(O)cc(-c3ncc4c(N5CC6CCC(C5)N6)nc(OCC56CCCN5CC(F)C6)nc4c3F)c12	inactive
C=CC(=O)Nc1cc(Nc2nccc(-c3cn(C)c4ccccc34)n2)c(OC)cc1N(C)CCN(C)C + C#Cc1c(F)ccc2cc(O)cc(-c3ncc4c(N5CC6CCC(C5)N6)nc(OCC56CCCN5CC(F)C6)nc4c3F)c12	inactive
C=CC(=O)N1CCN(c2nc(OCC3CCCN3C)nc3c(F)c(-c4nc(N)cc(C)c4C(F)(F)F)c(Cl)cc23)C(C)C1 (stereo not given) + C#Cc1c(F)ccc2cc(O)cc(-c3ncc4c(N5CC6CCC(C5)N6)nc(OCC56CCCN5CC(F)C6)nc4c3F)c12	inactive
CC(C)NCC(C(=O)N1CCN(c2ncnc3c2C(C)CC3O)CC1)c1ccc(Cl)cc1 (stereo not given) + C#Cc1c(F)ccc2cc(O)cc(-c3ncc4c(N5CC6CCC(C5)N6)nc(OCC56CCCN5CC(F)C6)nc4c3F)c12	inactive

**Query** Name the outcome recorded for O=C(c1ccc(F)c(F)c1Nc1ccc(I)cc1F)N1CC(O)([C@@H]2CCCCN2)C1 + C=CC(=O)N1CCN(c2nc(OCC3CCCN3C)nc3c(F)c(-c4nc(N)cc(C)c4C(F)(F)F)c(Cl)cc23)C(C)C1 in the assay.
**Result** active

* * *

// reported viability, T/C per item
# Tested on: 616215-338-R-J1-PDC complex spheroid viability
# Test Description: Anticancer human tumor 616215-338-R-J1-PDC cell line growth inhibition [RAS];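 further: spheroids exposed to agents for seven days before viability readout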;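 on viability, T/C: 100% = DMSO vehicle control viability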
# Test Context: second compound 0.01 µM; first compound 0.316 µM; stronger effect = lower value
Express the result in % but write the number alone.

// below: answered compounds
Compound	Target Under Test	Observed Result
Cc1nc(N2CCC3(CC2)COC(C)C3N)c(CO)nc1Sc1ccnc(N)c1Cl (stereo not drawn) + C=CC(=O)N1CCN(c2nc(OCC3CCCN3C)nc3c(F)c(-c4nc(N)cc(C)c4C(F)(F)F)c(Cl)cc23)C(C)C1	616215-338-R-J1-PDC complex spheroid viability	110
C=CC(=O)Nc1cc(Nc2nccc(-c3cn(C)c4ccccc34)n2)c(OC)cc1N(C)CCN(C)C + C=CC(=O)N1CCN(c2nc(OCC3CCCN3C)nc3c(F)c(-c4nc(N)cc(C)c4C(F)(F)F)c(Cl)cc23)C(C)C1	616215-338-R-J1-PDC complex spheroid viability	108

Please examine the following record next.
**Query** I have this compound here, Nc1ccn(C2OC(CO)C(O)C2(F)F)c(=O)n1 (stereo not drawn) + C=CC(=O)N1CCN(c2nc(OCC3CCCN3C)nc3c(F)c(-c4nc(N)cc(C)c4C(F)(F)F)c(Cl)cc23)C(C)C1 , and I need its recorded viability, T/C.
**Result** 12.9

* * *

# System: 616215-338-R-J1-PDC complex spheroid viability
# Test Description: Anticancer human tumor 616215-338-R-J1-PDC cell line growth inhibition [RAS];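 further: spheroids exposed to agents for seven days before viability readout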;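 on viability, T/C: 100% = DMSO vehicle control viability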
# Test Context: second compound 0.1 µM; first compound 10 µM; stronger effect = lower value
Entries whose viability, T/C is below 50% take satisfied; entries at or above 50% take not satisfied.

As a guide, the following entries are already answered.
Compound	Label Value
CC(=O)OC12COC1CC(O)C1(C)C(=O)C(O)C3=C(C)C(OC(=O)C(O)C(NC(=O)OC(C)(C)C)c4ccccc4)CC(O)(C(OC(=O)c4ccccc4)C21)C3(C)C (centres undefined) + C=CC(=O)N1CCN(c2nc(OCC3CCCN3C)nc3c(F)c(-c4nc(N)cc(C)c4C(F)(F)F)c(Cl)cc23)C(C)C1	satisfied
CC(C)NCC(C(=O)N1CCN(c2ncnc3c2C(C)CC3O)CC1)c1ccc(Cl)cc1 (centres undefined) + C#Cc1c(F)ccc2cc(O)cc(-c3ncc4c(N5CC6CCC(C5)N6)nc(OCC56CCCN5CC(F)C6)nc4c3F)c12	satisfied
C[C@@H](NC(=O)c1ncnc(N)c1Cl)c1ncc(C(=O)Nc2cc(C(F)(F)F)c(Cl)cn2)s1 + C#Cc1c(F)ccc2cc(O)cc(-c3ncc4c(N5CC6CCC(C5)N6)nc(OCC56CCCN5CC(F)C6)nc4c3F)c12	not satisfied
CC(Nc1ccc2c(c1)OCCn1cc(N3C(=O)OCC3C(F)F)nc1-2)C(N)=O (centres undefined) + C=CC(=O)N1CCN(c2nc(OCC3CCCN3C)nc3c(F)c(-c4nc(N)cc(C)c4C(F)(F)F)c(Cl)cc23)C(C)C1	not satisfied
CC(Nc1ccc2c(c1)OCCn1cc(N3C(=O)OCC3C(F)F)nc1-2)C(N)=O (centres undefined) + C#Cc1c(F)ccc2cc(O)cc(-c3ncc4c(N5CC6CCC(C5)N6)nc(OCC56CCCN5CC(F)C6)nc4c3F)c12	not satisfied

**Query** Hello, is viability, T/C of the following compound strictly smaller than 50%? NC1c2ccccc2OC12CCN(c1cnc3c(N4CCCc5ncccc54)n[nH]c3n1)CC2 (centres undefined) + C=CC(=O)N1CCN(c2nc(OCC3CCCN3C)nc3c(F)c(-c4nc(N)cc(C)c4C(F)(F)F)c(Cl)cc23)C(C)C1
**Result** not satisfied

**Query** # repeat for CC(=O)OC12COC1CC(O)C1(C)C(=O)C(O)C3=C(C)C(OC(=O)C(O)C(NC(=O)OC(C)(C)C)c4ccccc4)CC(O)(C(OC(=O)c4ccccc4)C21)C3(C)C (centres undefined) + C#Cc1c(F)ccc2cc(O)cc(-c3ncc4c(N5CC6CCC(C5)N6)nc(OCC56CCCN5CC(F)C6)nc4c3F)c12
**Result** satisfied

**Query** Okay, and Cc1nc(N2CCC3(CC2)COC(C)C3N)c(CO)nc1Sc1ccnc(N)c1Cl (centres undefined) + C=CC(=O)N1CCN(c2nc(OCC3CCCN3C)nc3c(F)c(-c4nc(N)cc(C)c4C(F)(F)F)c(Cl)cc23)C(C)C1 ?
**Result** not satisfied

* * *

# Tested on: 616215-338-R-J1-PDC complex spheroid viability
# Test Description: Anticancer human tumor 616215-338-R-J1-PDC cell line growth inhibition [RAS];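 further: spheroids exposed to agents for seven days before viability readout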
# Test Context: curve of first compound; second compound 0.1 µM
# IC50 annotations
Please reply with the bare figure in nM and do not write the unit itself.

Some compounds with recorded IC50:
Compound	IC50 (nM)
CC1(C)CCC(Nc2ncc(C(F)(F)F)c(-c3c[nH]c4c(P(C)(C)=O)c(C#N)ccc34)n2)CN1 (centres undefined) + C#Cc1c(F)ccc2cc(O)cc(-c3ncc4c(N5CC6CCC(C5)N6)nc(OCC56CCCN5CC(F)C6)nc4c3F)c12	13.4
CCC(CC)c1cc(NC2CCC(N)C2)n2nccc2n1 (centres undefined) + C#Cc1c(F)ccc2cc(O)cc(-c3ncc4c(N5CC6CCC(C5)N6)nc(OCC56CCCN5CC(F)C6)nc4c3F)c12	1780
Nc1ccn(C2OC(CO)C(O)C2(F)F)c(=O)n1 (centres undefined) + C=CC(=O)N1CCN(c2nc(OCC3CCCN3C)nc3c(F)c(-c4nc(N)cc(C)c4C(F)(F)F)c(Cl)cc23)C(C)C1	15.4
CCC(CC)c1cc(NC2CCC(N)C2)n2nccc2n1 (centres undefined) + C=CC(=O)N1CCN(c2nc(OCC3CCCN3C)nc3c(F)c(-c4nc(N)cc(C)c4C(F)(F)F)c(Cl)cc23)C(C)C1	1780
CC(C)NCC(C(=O)N1CCN(c2ncnc3c2C(C)CC3O)CC1)c1ccc(Cl)cc1 (centres undefined) + C=CC(=O)N1CCN(c2nc(OCC3CCCN3C)nc3c(F)c(-c4nc(N)cc(C)c4C(F)(F)F)c(Cl)cc23)C(C)C1	10000

**Query** Sample CC1(O)CCCC1n1c(=O)c(C(F)F)cc2cnc(NC3CCN(S(C)(=O)=O)CC3)nc21 (centres undefined) + C#Cc1c(F)ccc2cc(O)cc(-c3ncc4c(N5CC6CCC(C5)N6)nc(OCC56CCCN5CC(F)C6)nc4c3F)c12 — what was its IC50?
**Result** 924

**Query** Another compound to look at: CCc1c2c(nc3ccc(O)cc13)-c1cc3c(c(=O)n1C2)COC(=O)[C@]3(O)CC + C#Cc1c(F)ccc2cc(O)cc(-c3ncc4c(N5CC6CCC(C5)N6)nc(OCC56CCCN5CC(F)C6)nc4c3F)c12
**Result** 10.7

**Query** Lookup NC1c2ccccc2OC12CCN(c1cnc3c(N4CCCc5ncccc54)n[nH]c3n1)CC2 (centres undefined) + C#Cc1c(F)ccc2cc(O)cc(-c3ncc4c(N5CC6CCC(C5)N6)nc(OCC56CCCN5CC(F)C6)nc4c3F)c12
**Result** 4730

Data provenance is PubChem BioAssay AID2060898.
